FYI, the data here is from patent US6124269A.

Measured MIC, listed per entry.
System: Streptococcus pneumoniae ATCC 6303
Experiment: In vitro agar dilution MIC, organism code XX
Assay type: cell-based
Conditions: Table 1B, unit assumed
Lab book: enter the figure in µg/mL, no units written.

CC[C@H]1OC(=O)[C@@](C)(F)C(=O)[C@H](C)[C@@H](O[C@@H]2O[C@H](C)C[C@H](N(C)C)[C@H]2O)[C@](C)(OC/C=C/c2cnc3ccc(NC)cc3c2)C[C@@H](C)C(=O)[C@H](C)[C@H]2NC(=O)O[C@@]21C [Example 16]	0.03
CC[C@H]1OC(=O)[C@@](C)(F)C(=O)[C@H](C)[C@@H](O[C@@H]2O[C@H](C)C[C@H](N(C)C)[C@H]2O)[C@](C)(OC/C=C/c2cnc3ccc(C=NN=C(C)C)cc3c2)C[C@@H](C)C(=O)[C@H](C)[C@H]2NC(=O)O[C@@]21C [Example 20]	0.125
CC[C@H]1OC(=O)[C@@](C)(F)C(=O)[C@H](C)[C@@H](O[C@@H]2O[C@H](C)C[C@H](N(C)C)[C@H]2O)[C@](C)(OC/C=C/c2cnc3ccc(N)cc3c2)C[C@@H](C)C(=O)[C@H](C)[C@H]2NC(=O)O[C@@]21C [Example 9]	0.015
CC[C@H]1OC(=O)C(C)(F)C(=O)[C@H](C)[C@@H](O[C@@H]2O[C@H](C)C[C@H](N(C)C)[C@H]2O)[C@](C)(OC)C[C@@H](C)C2=NCCN3C(=O)O[C@@]1(C)[C@H]3[C@H]2C (stereo partly drawn) [Example 1]	0.03
CC[C@H]1OC(=O)C(C)(F)C(=O)[C@H](C)[C@@H](O[C@@H]2O[C@H](C)C[C@H](N(C)C)[C@H]2O)[C@](C)(OCC#CC(=O)c2ccccc2)C[C@@H](C)C(=O)[C@H](C)[C@H]2NC(=O)O[C@@]21C (stereo partly drawn) [Example 23]	0.03

Now take the following molecule into account.
Could you tell me which MIC is on file for C=CCO[C@]1(C)C[C@@H](C)C(=O)[C@H](C)[C@H]2NC(=O)O[C@]2(C)[C@@H](CC)OC(=O)[C@@](C)(F)C(=O)[C@H](C)[C@H]1O[C@@H]1O[C@H](C)C[C@H](N(C)C)[C@H]1O [Example 4] ? 0.06

----------
Tested on: Streptococcus pneumoniae GYR 1171
The reader will find reported MIC values listed item by item below.
Your answer should be a plain number; it is taken to be in µg/mL.

Recorded MIC of CC[C@H]1OC(=O)C(C)(F)C(=O)[C@H](C)[C@@H](O[C@@H]2O[C@H](C)C[C@H](N(C)C)[C@H]2O)[C@](C)(OCC#CC(=O)c2cccs2)C[C@@H](C)C(=O)[C@H](C)[C@H]2NC(=O)O[C@@]21C (stereo partly shown) [Example 24] , please. 0.03

Ok, now CC[C@H]1OC(=O)[C@@](C)(F)C(=O)[C@H](C)[C@@H](O[C@@H]2O[C@H](C)C[C@H](N(C)C)[C@H]2O)[C@](C)(OC/C=C/c2cnc3ccccc3c2)C[C@@H](C)C(=O)[C@H](C)[C@H]2NC(=O)O[C@@]21C [Example 5] 0.03

Please give the result for CC[C@H]1OC(=O)[C@@](C)(F)C(=O)[C@H](C)[C@@H](O[C@@H]2O[C@H](C)C[C@H](N(C)C)[C@H]2O)[C@](C)(OC/C=C/c2cnc3ccc(C=NN)cc3c2)C[C@@H](C)C(=O)[C@H](C)[C@H]2NC(=O)O[C@@]21C [Example 19] too. 0.06

----------
Test system: Nocardia asteroides ATCC 9970
Assay: In vitro agar dilution MIC, organism code VV
Format: cell-based
Settings: Table 1B, in µg/mL (unit assumed)
Field: label. Allowed values: 1 (MIC < 0.02) or -1 (MIC >= 0.02).

Example entries begin here.
CC[C@H]1OC(=O)C(C)(F)C(=O)[C@H](C)[C@@H](O[C@@H]2O[C@H](C)C[C@H](N(C)C)[C@H]2O)[C@](C)(OCC#CC(=O)c2cccs2)C[C@@H](C)C(=O)[C@H](C)[C@H]2NC(=O)O[C@@]21C (stereo partly shown) [Example 24]	-1
CC[C@H]1OC(=O)C(C)(F)C(=O)[C@H](C)[C@@H](O[C@@H]2O[C@H](C)C[C@H](N(C)C)[C@H]2O)[C@](C)(OCC#CC(=O)c2ccccc2)C[C@@H](C)C(=O)[C@H](C)[C@H]2NC(=O)O[C@@]21C (stereo partly shown) [Example 23]	-1

Identify whether the compound CC[C@H]1OC(=O)[C@@](C)(F)C(=O)[C@H](C)[C@@H](O[C@@H]2O[C@H](C)C[C@H](N(C)C)[C@H]2O)[C@](C)(OC/C=C/c2cnc3ccc(N(C)C)cc3c2)C[C@@H](C)C(=O)[C@H](C)[C@H]2NC(=O)O[C@@]21C [Example 13] records MIC below 0.02. -1

# iterate: CC[C@H]1OC(=O)[C@@](C)(F)C(=O)[C@H](C)[C@@H](O[C@@H]2O[C@H](C)C[C@H](N(C)C)[C@H]2O)[C@](C)(OC/C=C/c2cnc3ccc(CS(N)(=O)=O)cc3c2)C[C@@H](C)C(=O)[C@H](C)[C@H]2NC(=O)O[C@@]21C [Example 14] -1

----------
Listed next: entries and their corresponding MIC.
Test system: Streptococcus pneumoniae 5979
Assay: In vitro agar dilution MIC, organism code ZZ
Assay type: cell-based
Settings: Table 1B, unit assumed
Numbers only; they are read as µg/mL.

CC[C@H]1OC(=O)[C@@](C)(F)C(=O)[C@H](C)[C@@H](O[C@@H]2O[C@H](C)C[C@H](N(C)C)[C@H]2O)[C@](C)(OC/C=C/c2cnc3ccc(NC)cc3c2)C[C@@H](C)C(=O)[C@H](C)[C@H]2NC(=O)O[C@@]21C [Example 16]	1
CC[C@H]1OC(=O)C(C)(F)C(=O)[C@H](C)[C@@H](O[C@@H]2O[C@H](C)C[C@H](N(C)C)[C@H]2O)[C@](C)(OCC#Cc2cnc3ccccc3c2)C[C@@H](C)C(=O)[C@H](C)[C@H]2NC(=O)O[C@@]21C (stereo partly drawn) [Example 26]	16

Need MIC of CC[C@H]1OC(=O)[C@@](C)(F)C(=O)[C@H](C)[C@@H](O[C@@H]2O[C@H](C)C[C@H](N(C)C)[C@H]2O)[C@](C)(OC/C=C/c2cnc3ccc(N)cc3c2)C[C@@H](C)C(=O)[C@H](C)[C@H]2NC(=O)O[C@@]21C [Example 9] , thanks. 0.25

----------
Test system: Escherichia coli SS
Assay: In vitro agar dilution MIC, organism code RR
Format: cell-based
Details: Table 1B, in µg/mL (unit assumed)
ENDPOINT: MIC
Answer with the value's number alone.

Example entries and their recorded answers appear below.
CC[C@H]1OC(=O)[C@@](C)(F)C(=O)[C@H](C)[C@@H](O[C@@H]2O[C@H](C)C[C@H](N(C)C)[C@H]2O)[C@](C)(OC/C=C/c2ccc3nccnc3c2)C[C@@H](C)C(=O)[C@H](C)[C@H]2NC(=O)O[C@@]21C	0.1
CC[C@H]1OC(=O)[C@@](C)(F)C(=O)[C@H](C)[C@@H](O[C@@H]2O[C@H](C)C[C@H](N(C)C)[C@H]2O)[C@](C)(OC/C=C/c2cnc3ccc(CS(N)(=O)=O)cc3c2)C[C@@H](C)C(=O)[C@H](C)[C@H]2NC(=O)O[C@@]21C	0.1
CC[C@H]1OC(=O)[C@@](C)(F)C(=O)[C@H](C)[C@@H](O[C@@H]2O[C@H](C)C[C@H](N(C)C)[C@H]2O)[C@](C)(OC/C=C/c2cnc3ccc(C=NN)cc3c2)C[C@@H](C)C(=O)[C@H](C)[C@H]2NC(=O)O[C@@]21C	0.78

// next entry
Param item = "CC[C@H]1OC(=O)[C@@](C)(F)C(=O)[C@H](C)[C@@H](O[C@@H]2O[C@H](C)C[C@H](N(C)C)[C@H]2O)[C@](C)(OC/C=C/c2cnc3ccccc3c2)C[C@@H](C)C(=O)[C@H](C)[C@H]2NC(=O)O[C@@]21C" ; retrieve measured MIC. 0.2

----------
Tested on: Streptococcus pneumoniae GYR 1171
ENDPOINT: MIC (µg/mL)
Give just the numeric value; µg/mL need not be written.

C=CCO[C@]1(C)C[C@@H](C)C(=O)[C@H](C)[C@H]2NC(=O)O[C@]2(C)[C@@H](CC)OC(=O)[C@@](C)(F)C(=O)[C@H](C)[C@H]1O[C@@H]1O[C@H](C)C[C@H](N(C)C)[C@H]1O [Example 4]	0.03
CC[C@H]1OC(=O)C(C)(F)C(=O)[C@H](C)[C@@H](O[C@@H]2O[C@H](C)C[C@H](N(C)C)[C@H]2O)[C@](C)(OC)C[C@@H](C)C2=NCCN3C(=O)O[C@@]1(C)[C@H]3[C@H]2C (some centres unmarked) [Example 1]	0.03
CC[C@H]1OC(=O)C(C)(Cl)C(=O)[C@H](C)[C@@H](O[C@@H]2O[C@H](C)C[C@H](N(C)C)[C@H]2O)[C@](C)(OC)C[C@@H](C)C2=NCCN3C(=O)O[C@@]1(C)[C@H]3[C@H]2C (some centres unmarked) [Example 2]	4
CC[C@H]1OC(=O)[C@@](C)(F)C(=O)[C@H](C)[C@@H](O[C@@H]2O[C@H](C)C[C@H](N(C)C)[C@H]2O)[C@](C)(OC/C=C/c2cnc3ccc(N)cc3c2)C[C@@H](C)C(=O)[C@H](C)[C@H]2NC(=O)O[C@@]21C [Example 9]	0.015

Switching to the query record.
Param readout = MIC; param system = Streptococcus pneumoniae GYR 1171; param query = CC[C@H]1OC(=O)[C@@](C)(F)C(=O)[C@H](C)[C@@H](O[C@@H]2O[C@H](C)C[C@H](N(C)C)[C@H]2O)[C@](C)(OC/C=C/c2cnc3ccc(C=NO)cc3c2)C[C@@H](C)C(=O)[C@H](C)[C@H]2NC(=O)O[C@@]21C [Example 18] ; response: value 0.015
